Recorded values, source the supplement of paper PMC8612539.

# Test system: Escherichia coli
# Assay method text: minimum inhibitory concentration (MIC)
# Particulars: isolate (source animal id): 121
Entries and their minimum inhibitory concentration values follow.

Sample records with minimum inhibitory concentration:
Compound	minimum inhibitory concentration
CCCN1C[C@H](C)[C@@H](O)[C@](C)(O)[C@@H](CC)OC(=O)[C@H](C)[C@@H](O[C@H]2C[C@@](C)(OC)[C@@H](O)[C@H](C)O2)[C@H](C)[C@@H](O[C@@H]2O[C@H](C)C[C@H](N(C)C)[C@H]2O)[C@](C)(O)C[C@H]1C [Gamithromycin]	8 µg/mL
CC1(C)S[C@@H]2[C@H](NC(=O)Cc3ccccc3)C(=O)N2[C@H]1C(=O)O [Penicillin]	> 8 µg/mL
CCN1CCN(c2cc3c(cc2F)c(=O)c(C(=O)O)cn3C2CC2)CC1 [Enrofloxacin]	≤ 0.12 µg/mL
CN1C[C@@H]2C[C@H]1CN2c1cc2c(cc1F)c(=O)c(C(=O)O)cn2C1CC1 [Danofloxacin]	≤ 0.12 µg/mL
C=C[C@]1(C)C[C@@H](OC(=O)CSCCN(CC)CC)[C@]2(C)[C@H](C)CC[C@]3(CCC(=O)[C@H]32)[C@@H](C)[C@@H]1O [Tiamulin]	> 32 µg/mL

Quick check: minimum inhibitory concentration of COc1cc(Cc2cnc(N)nc2N)cc(OC)c1OC.Cc1cc(NS(=O)(=O)c2ccc(N)cc2)no1 [trimethoprim-sulfamethoxazole] ?
> 2 µg/mL

Quick check: minimum inhibitory concentration of CC[C@H]1OC(=O)C[C@@H](O)[C@H](C)[C@@H](O[C@@H]2O[C@H](C)[C@@H](O[C@H]3C[C@@](C)(O)[C@@H](O)[C@H](C)O3)[C@H](N(C)C)[C@H]2O)[C@@H](CC=O)C[C@@H](C)C(=O)/C=C/C(C)=C/[C@@H]1CO[C@@H]1O[C@H](C)[C@@H](O)[C@@H](OC)[C@H]1OC [Tylosin] ?
> 32 µg/mL
